Kindly supply the reported Growth Rate values for the records listed here.
- Tested on: U2OS
- PROCEDURE TEXT: Incucyte cell viability with U2OS; note: filed as whole numbers so only -1 and 0 and 1 occur
- Format: toxicity, cell-based
- RUN PARAMETERS: human, 12 h, 10 µM, compound concentration 10 uM, replicate number 1, timepoint 12 hours
One number for each entry.

>>> result("OCCn1cc(-c2ccc3c(c2)CCC3=NO)c(-c2ccncc2)n1")
1
>>> result("COc1ccccc1-c1cc(Nc2cccc(CS(N)(=O)=O)c2)ncn1")
0
>>> result("CC[C@@H]1C(=O)N(C)c2cnc(Nc3ccc(C(=O)NC4CCN(C)CC4)cc3OC)nc2N1C1CCCC1")
0
>>> result("CCOP(=O)(OCC)C(=Cc1cc(C(C)(C)C)c(O)c(C(C)(C)C)c1)P(=O)(OCC)OCC")
0

Attention now shifts to the item below.
Response field Growth Rate (U2OS) for item CC[C@@H]1C(=O)N(C)c2cnc(Nc3ccc(C(=O)N[C@H]4CC[C@H](N5CCN(CC6CC6)CC5)CC4)cc3OC)nc2N1C(C)C : 0

---

- Tested on: U2OS
- PROCEDURE TEXT: Multiplex assay against U2OS
- Type: toxicity, cell-based
- RUN PARAMETERS: human, 48 h, 10 µM, compound concentration 10 uM, replicate 2
ENDPOINT: Population Healthy Nuclei (%)
Numbers only, in %.

Recorded results for 10 molecules are shown here.
>>> result("N#CCNC(=O)c1ccc(-c2ccnc(Nc3ccc(N4CCOCC4)cc3)n2)cc1")
44
>>> result("CCCCCNC(=N)N/N=C/c1c[nH]c2ccc(OC)cc12.O=C(O)/C=C\\C(=O)O [TEGASEROD MALEATE]")
24
>>> result("C=CC(=O)Nc1cc(-n2c(=O)ccc3cnc4ccc(-c5ccc(NS(C)(=O)=O)cc5)cc4c32)ccc1C")
35
>>> result("CCCc1cc(C)[nH]c(=O)c1CNC(=O)c1cc(-c2ccc(N3CCN(C(C)C)CC3)nc2)cc2c1cnn2C(C)C")
37
>>> result("Cc1c(P(=S)(c2ccccc2)c2ccccc2)n2ccccc2[n+]1C/C=C/c1ccccc1.[Br-]")
18
>>> result("Cc1c(Nc2ccc(S(=O)(=O)N3CCN(C)CC3)cc2F)nc2ccc(-c3cnn(C4CC4)c3)cn2c1=O")
38
>>> result("CC(C)[C@H](CO)Nc1nc(Nc2cccc(Cl)c2)c2ncn(C(C)C)c2n1")
62
>>> result("CCCCN(CC)c1nc(C)nc2c1c(C)cn2-c1c(C)cc(C)cc1C.Cl")
71
>>> result("c1ccc(-c2oc3ncnc(NC[C@@H]4CCCO4)c3c2-c2ccccc2)cc1")
75
>>> result("CN(c1cc(C(F)(F)F)nc(OCCC(=O)O)n1)c1cccc2c1CCC2")
87

Parameter requested: Population Healthy Nuclei (%). Apply to each item below.
1. N#Cc1cccc(C(=O)Nc2cc(-c3ccccc3)nn2-c2ccccc2)c1
2. CN1CCN(Cc2ccc(-c3cnc4[nH]cc(-c5ccc6[nH]ccc6c5)c4c3)cc2)CC1
3. CC(/C=C1\SC(=S)N(CCCC(=O)Nc2ccc(C(=O)O)c(O)c2)C1=O)=C\c1ccccc1
4. CC(C)c1cc(Nc2nc(N3CCC[C@H](N)C3)ncc2C(N)=O)cc(C(C)C)n1
5. C[C@@H](Oc1cc(-n2cnc3ccc(CN4CCN(C)CC4)cc32)sc1C(N)=O)c1ccccc1C(F)(F)F
6. CC(Cc1ccc(O)c(O)c1)C(C)Cc1ccc(O)c(O)c1 (stereo unspecified) [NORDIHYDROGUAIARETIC ACID]

A:
60
64
92
9
43
92

Provenance of the data: ChEMBL document CHEMBL4689842
